Tested on: PC-3
Test: NCI tumour cell line growth inhibition, 48 h
Calls of active or inactive are those of the source. No stated cut-off is given here; in the data, active = GI50 up to about 1.1 µM and inactive = higher.
recorded.endpoint: GI50

molecule=OCCN(C1=NCCN1)/[N+](=C/c1ccc(Cl)cc1)[CH-]c1ccc(Cl)cc1 recorded_endpoint=GI50 measurement="62.5 µM (inactive)"
molecule=N=C(N)N/N=C/c1ccc(O)c(C(=O)O)c1 recorded_endpoint=GI50 measurement="> 100 µM (inactive)"
molecule=C=CCN(c1cc(OCc2ccccc2)c(NC(C)=O)cc1[N+](=O)[O-])S(C)(=O)=O recorded_endpoint=GI50 measurement="> 100 µM (inactive)"
molecule="COC(=O)C1=C(O)C(C(=O)OC)[C@@]2(O)[C@@H](C(=O)OC)C(c3ccc(OC(=O)/C(=C/c4ccc(Cl)cc4)c4ccc(Cl)cc4)cc3)C[C@@H]1[C@@H]2C(=O)OC (some centres not stated)" recorded_endpoint=GI50 measurement="24.1 µM (inactive)"
molecule=COc1ccc(-n2c3c(c4cc(O)ccc42)Cc2ccccc2C3=O)cc1 recorded_endpoint=GI50 measurement="2.2 µM (inactive)"
molecule=COc1cc(S(=O)(=O)Nc2nc(-c3ccc(/N=C/c4ccccc4O)cc3)cs2)ccc1Cl recorded_endpoint=GI50 measurement="39.1 µM (inactive)"
molecule=COc1cc2c3c(c1)c1cc(OC)c(OC)cc1c[n+]3CC2 recorded_endpoint=GI50 measurement="25.8 µM (inactive)"

----------
Test system: SK-MEL-2
Assay: NCI tumour cell line growth inhibition, 48 h
The source made the active and inactive calls. Rule as the data show it: active = GI50 up to about 1.1 µM and inactive = higher.
recorded.endpoint: GI50

smiles_str=Cc1ccc2ccc(O)cc2c1 target_desc=SK-MEL-2 recorded_endpoint=GI50 measurement="38.1 µM (inactive)"
smiles_str=O=C(/C=C/C(Cl)(Cl)Cl)Nc1ccc(Cl)cc1 target_desc=SK-MEL-2 recorded_endpoint=GI50 measurement="8.59 µM (inactive)"
smiles_str=C=CC(=O)NCNC(=O)C=C target_desc=SK-MEL-2 recorded_endpoint=GI50 measurement="> 100 µM (inactive)"
smiles_str=CN1CCN(C(=S)N(C)C(=O)c2cccs2)CC1 target_desc=SK-MEL-2 recorded_endpoint=GI50 measurement="> 100 µM (inactive)"

----------
System: SN12C
Assay: NCI tumour cell line growth inhibition, 48 h
Counter-ions that a name gives are not always drawn. Activity calls are given as the source filed them. Cut-off read from the data, not from the text of the source: active = GI50 up to about 1.1 µM and inactive = higher.
recorded.endpoint: GI50

molecule="C=CC[P@]1(=O)O[C@H](c2ccccc2)C(C)N1C(C)C (some centres undefined)" recorded_endpoint=GI50 measurement="> 100 µM (inactive)"
molecule=COC(=O)C1([C@@H]2C[C@@H](O)[C@]3(C)CC/C=C(\C)CCC[C@H](C)[C@H](O)[C@@H]2O3)CC1 recorded_endpoint=GI50 measurement="> 100 µM (inactive)"
molecule="CN1NC(c2ccccc2)=C(C#N)C(=O)CC1c1ccc(Br)cc1 (centres undefined)" recorded_endpoint=GI50 measurement="44.9 µM (inactive)"
molecule=C=C(C)CCN[Si](c1ccccc1)(c1ccccc1)C(C)(C)C recorded_endpoint=GI50 measurement="18.2 µM (inactive)"
molecule="CC(C)/C=N\\N1C(N)=C(C#N)C(C#N)(C#N)C1C(C)C (centres undefined)" recorded_endpoint=GI50 measurement="69.8 µM (inactive)"
molecule="COC(=O)C1=CO[C@@H](C)[C@@H]2Cn3ccc4c5ccccc5nc-4c3C[C@H]12 [ALSTONINE HYDROCHLORIDE]" recorded_endpoint=GI50 measurement="> 100 µM (inactive)"
molecule="CC(C)CC12CC3CCC(CNC1=O)C32C (centres undefined)" recorded_endpoint=GI50 measurement="> 100 µM (inactive)"
molecule=CC[C@]12CCCN3CCc4c(n(c5ccccc45)C(=O)C1)[C@@H]32 recorded_endpoint=GI50 measurement="12.9 µM (inactive)"
molecule=Cn1c2c(c3ccccc31)CCN(CCN1CCN(c3ccccc3)CC1)C2=O recorded_endpoint=GI50 measurement="> 100 µM (inactive)"

// provenance: ChEMBL document CHEMBL1201862
